# protocol: Stability in human Jurkat T cells assessed as compound remaining at EC50 concentration after 5 days by HPLC-MS analysis
# Assay type: ADME, cell-based
# applied.conditions: time 5 day, read-out: Stabilty

{"columns": ["smiles.text", "remaining at 120 h"],
 "data": [
  ["COC(=O)[C@@H](NC(=O)CC/C(C)=C/Cc1c(O)c2c(c(C)c1OC)COC2=O)[C@@H](C)O", "> 40%"]
]}

---

# Test system: Jurkat
# protocol: Immunosuppression-mediated cytotoxicity against human Jurkat T cells assessed as reduction in cell viability at 1 mg/ml incubated for 48 hrs by MTT assay relative to control
# Assay type: cell-based
Where a SMILES comes first, the peptide text is derived from it. [ ]: non-standard residue; d: D form. The star is where a group is joined. Mycophenolyl = COc1c(C)c2c(c(O)c1C/C=C(\C)CCC(=O)*)C(=O)OC2; Arg(NO2) = N=C(NCCC[C@H](N)C(=O)O)N[N+](=O)[O-]

{"columns": ["molecule", "Activity"],
 "data": [
  ["COC(=O)[C@@H](NC(=O)[C@H](CCCCNC(=O)[C@@H](N)CC(C)C)NC(=O)[C@@H]1CCCN1C(=O)[C@H](CCCNC(=N)N[N+](=O)[O-])NC(=O)CC/C(C)=C/Cc1c(O)c2c(c(C)c1OC)COC2=O)[C@@H](C)O (Mycophenolyl-[Arg(NO2)]PK(Leu)T-OMe)", "61.34%"],
  ["COc1c(C)c2c(c(O)c1C/C=C(\\C)CCC(=O)N[C@@H](CCCNC(=N)N[N+](=O)[O-])C(=O)O)C(=O)OC2", "59.12%"],
  ["CC[C@H](C)[C@H](N)C(=O)NCCCC[C@H](NC(=O)[C@@H]1CCCN1C(=O)[C@H](CCCNC(=N)N[N+](=O)[O-])NC(=O)CC/C(C)=C/Cc1c(O)c2c(c(C)c1OC)COC2=O)C(=O)N[C@H](C(=O)OC)[C@@H](C)O (Mycophenolyl-[Arg(NO2)]PK(Ile)T-OMe)", "52.48%"]
]}
